These entries and their values trace back to patent US12662491B2.

# target-system: Zcchc11 enzyme (Homo sapiens, UniProt Q5TAX3)
# Construct: made in house; host or cells: HEK293 cells (Zcchc11); E. coli Rosetta II (LIN28A)
# test: TUTase assay (Zcchc11 assay, Lin28a-dependent polyuridylation of pre-let-7)
# Type: biochemical
# applied-conditions: Lin28a-dependent Zcchc11 (Z11) TUTase assay; read-out: Potency Lin28a-dep Z11 IC50
Please respond with reported IC50 for every item in the list.

Below, 3 compounds whose answers are already recorded.
- structure-string: "CC1(n2cc(C(=O)O)c(=O)c3cc(F)c(N4CCC[C@@H]4COc4ccccn4)cc32)CCC1"
  target-system: "Zcchc11 enzyme (Homo sapiens, UniProt Q5TAX3)"
  IC50: "1 to 10 µM"
- structure-string: "O=C(O)c1cn(-c2cnccn2)c2cc(N3CCC[C@@H]3COc3ncccc3Cl)c(Cl)cc2c1=O"
  target-system: "Zcchc11 enzyme (Homo sapiens, UniProt Q5TAX3)"
  IC50: "≤ 1 µM"
- structure-string: "COCCN1CCC(n2cc(C(=O)O)c(=O)c3cc(Cl)c(N4CCC[C@@H]4COc4ncccc4Cl)cc32)CC1"
  target-system: "Zcchc11 enzyme (Homo sapiens, UniProt Q5TAX3)"
  IC50: "1 to 10 µM"

Then this compound:
API: value(readout=IC50, system=Zcchc11 enzyme (Homo sapiens, UniProt Q5TAX3)) for record Nc1ccc(Cn2cc(C(=O)O)c(=O)c3cc(Cl)c(N4CCC[C@@H]4COc4ncccc4Cl)cc32)cn1
1 to 10 µM

---

# target-system: Zcchc11 enzyme (Homo sapiens)
# Construct: made in house; host or cells: HEK293 cells (Zcchc11); E. coli Rosetta II (LIN28A)
# Sequence (Q5TAX3 212-1420): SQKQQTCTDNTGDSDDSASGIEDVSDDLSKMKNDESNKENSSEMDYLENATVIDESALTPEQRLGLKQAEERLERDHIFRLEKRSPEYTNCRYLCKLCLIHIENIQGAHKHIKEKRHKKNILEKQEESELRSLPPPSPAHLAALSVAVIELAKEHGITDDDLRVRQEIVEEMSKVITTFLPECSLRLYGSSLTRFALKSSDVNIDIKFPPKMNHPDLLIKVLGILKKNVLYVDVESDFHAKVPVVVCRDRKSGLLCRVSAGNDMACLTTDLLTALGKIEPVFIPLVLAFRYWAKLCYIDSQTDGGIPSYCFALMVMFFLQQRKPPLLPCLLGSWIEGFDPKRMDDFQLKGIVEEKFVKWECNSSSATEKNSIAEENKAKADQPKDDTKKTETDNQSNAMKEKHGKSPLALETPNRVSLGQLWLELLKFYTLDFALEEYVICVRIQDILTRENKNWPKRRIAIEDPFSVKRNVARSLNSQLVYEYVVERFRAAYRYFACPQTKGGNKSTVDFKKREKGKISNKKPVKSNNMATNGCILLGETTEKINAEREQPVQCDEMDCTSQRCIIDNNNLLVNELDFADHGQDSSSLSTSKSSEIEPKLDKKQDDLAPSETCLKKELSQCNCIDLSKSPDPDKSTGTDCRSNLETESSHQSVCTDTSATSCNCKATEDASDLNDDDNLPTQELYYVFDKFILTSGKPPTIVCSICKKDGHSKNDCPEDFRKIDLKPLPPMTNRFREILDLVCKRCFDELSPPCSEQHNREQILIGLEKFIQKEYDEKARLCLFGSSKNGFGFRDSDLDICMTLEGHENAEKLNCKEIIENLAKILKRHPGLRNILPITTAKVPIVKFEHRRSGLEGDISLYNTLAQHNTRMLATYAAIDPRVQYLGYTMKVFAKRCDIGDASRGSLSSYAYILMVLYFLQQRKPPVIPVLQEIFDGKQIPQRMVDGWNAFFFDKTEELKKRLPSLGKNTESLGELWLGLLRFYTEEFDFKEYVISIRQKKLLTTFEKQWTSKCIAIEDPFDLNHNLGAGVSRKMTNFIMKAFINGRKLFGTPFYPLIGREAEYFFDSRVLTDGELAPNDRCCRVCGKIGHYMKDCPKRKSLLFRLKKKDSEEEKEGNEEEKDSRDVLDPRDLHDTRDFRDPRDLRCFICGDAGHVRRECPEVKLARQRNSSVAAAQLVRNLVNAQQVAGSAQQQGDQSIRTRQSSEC
# test: TUTase assay (Zcchc11 assay, Lin28a-dependent polyuridylation of pre-let-7)
# Assay type: biochemical
# applied-conditions: Lin28a-dependent Zcchc11 (Z11) TUTase activity; read-out: Potency Lin28a-dep Z11 IC50
pIC50: −log10 of the molar value.
quantity-name: pIC50

Below, 2 compounds whose answers are already recorded.
- compound: "O=C(O)c1cn(-c2ccc(O)cc2F)c2cc(N3CCC[C@@H]3COc3cccnn3)c(F)cc2c1=O"
  pIC50: "≥ 6.00"
- compound: "CN(C)C1CN(c2ccc(-n3cc(C(=O)O)c(=O)c4cc(Cl)c(N5CCC[C@@]5(C)COc5ncccc5Cl)nc43)cn2)C1 (racemic)"
  pIC50: "≥ 6.00"

Then this compound:
Consider the compound COc1ccc(Cl)c(OC[C@H]2C[C@H]3C[C@H]3N2c2cc3c(cc2F)c(=O)c(C(=O)O)cn3-c2ccc(N3CC(N(C)C)C3)nc2)n1 (racemic) and give its measured pIC50.
≥ 6.00

---

# target-system: Zcchc11 enzyme (Homo sapiens)
# Construct: made in house; host or cells: HEK293 cells (Zcchc11); E. coli Rosetta II (LIN28A)
# Sequence (Q5TAX3 212-1420): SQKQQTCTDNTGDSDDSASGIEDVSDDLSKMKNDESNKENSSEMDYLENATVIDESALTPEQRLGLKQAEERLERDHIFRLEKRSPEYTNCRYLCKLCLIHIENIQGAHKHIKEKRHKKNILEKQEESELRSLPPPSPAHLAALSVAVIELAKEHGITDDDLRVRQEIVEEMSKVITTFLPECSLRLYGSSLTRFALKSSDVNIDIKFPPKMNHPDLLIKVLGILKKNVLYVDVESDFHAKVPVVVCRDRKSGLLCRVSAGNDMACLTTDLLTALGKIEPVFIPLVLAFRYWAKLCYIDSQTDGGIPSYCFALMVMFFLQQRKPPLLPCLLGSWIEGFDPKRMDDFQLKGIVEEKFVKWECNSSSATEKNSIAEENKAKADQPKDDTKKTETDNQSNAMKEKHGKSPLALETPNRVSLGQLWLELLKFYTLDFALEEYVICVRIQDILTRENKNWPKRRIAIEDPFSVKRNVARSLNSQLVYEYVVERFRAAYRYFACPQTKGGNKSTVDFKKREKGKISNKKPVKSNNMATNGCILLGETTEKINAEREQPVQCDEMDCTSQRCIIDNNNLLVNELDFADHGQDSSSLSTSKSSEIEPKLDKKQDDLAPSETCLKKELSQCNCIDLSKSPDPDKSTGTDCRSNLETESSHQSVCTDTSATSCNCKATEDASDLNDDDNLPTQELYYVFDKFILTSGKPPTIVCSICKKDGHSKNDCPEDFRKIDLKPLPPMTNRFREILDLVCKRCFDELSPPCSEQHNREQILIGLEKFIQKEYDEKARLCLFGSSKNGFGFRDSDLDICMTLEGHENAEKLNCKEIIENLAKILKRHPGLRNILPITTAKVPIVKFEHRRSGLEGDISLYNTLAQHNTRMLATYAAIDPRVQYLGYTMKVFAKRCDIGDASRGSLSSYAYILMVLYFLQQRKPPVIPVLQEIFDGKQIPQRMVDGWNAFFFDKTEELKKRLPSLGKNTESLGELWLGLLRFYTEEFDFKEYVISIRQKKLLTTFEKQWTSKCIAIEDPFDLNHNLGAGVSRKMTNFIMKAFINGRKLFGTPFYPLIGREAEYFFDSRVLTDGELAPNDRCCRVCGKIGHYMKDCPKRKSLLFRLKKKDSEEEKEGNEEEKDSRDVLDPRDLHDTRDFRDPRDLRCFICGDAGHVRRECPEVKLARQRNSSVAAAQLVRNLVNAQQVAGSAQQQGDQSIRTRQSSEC
# test: TUTase assay (Zcchc11 assay, Lin28a-dependent polyuridylation of pre-let-7)
# Format: biochemical
# applied-conditions: Lin28a-dependent Zcchc11 (Z11) TUTase activity; read-out: Potency Lin28a-dep Z11 IC50
pIC50: −log10 of the molar value.
quantity-name: pIC50

Below, 6 compounds whose answers are already recorded.
- compound: "O=C(O)c1cn(C2CC2)c2cc(N3CCC[C@@H]3COc3ccccn3)c(Cl)cc2c1=O"
  pIC50: "5.00 to 6.00"
- compound: "O=C(O)c1cn(-c2ccc(O)cc2Cl)c2cc(N3CCC[C@@H]3COc3ccccn3)c(F)cc2c1=O"
  pIC50: "5.00 to 6.00"
- compound: "COCCOc1cnc(-n2cc(C(=O)O)c(=O)c3cc(F)c(N4CCC[C@@H]4COc4ncccc4C)cc32)cn1"
  pIC50: "≥ 6.00"
- compound: "Cc1c(-n2cc(C(=O)O)c(=O)c3cc(Cl)c(N4CCC[C@@H]4COc4ncccc4Cl)cc32)cnn1C (racemic)"
  pIC50: "≥ 6.00"
- compound: "COc1ccc(Cl)c(-n2cc(C(=O)O)c(=O)c3cc(F)c(N4CCC[C@@H]4COc4ccccn4)cc32)c1"
  pIC50: "5.00 to 6.00"
- compound: "CN(C)C1CN(c2ccc(-n3cc(C(=O)O)c(=O)c4cc(Cl)c(N5[C@@H](COc6nc(N)ccc6Cl)C[C@H]6C[C@H]65)cc43)cn2)C1"
  pIC50: "≥ 6.00"

Report pIC50 for each item below.
1. Cc1ccc(F)c(OC[C@H]2C[C@H]3C[C@H]3N2c2cc3c(cc2F)c(=O)c(C(=O)O)cn3-c2ccc(N(C)C)nc2)n1
2. Cc1cccnc1OC[C@H]1CCCN1c1cc2c(cc1F)c(=O)c(C(=O)O)cn2-c1cnn(C)c1
3. COc1ccnc(OC[C@H]2C[C@H]3C[C@H]3N2c2cc3c(cc2Cl)c(=O)c(C(=O)O)cn3-c2ccc(N(C)C)nc2)c1F
4. O=C(O)c1cn(C2COC2)c2cc(N3CCC[C@@H]3COc3ccccn3)c(F)cc2c1=O
5. Cn1cc(-n2cc(C(=O)O)c(=O)c3cc(C#N)c(N4CCCC4COc4ncccc4F)cc32)cn1 (racemic)
6. Cc1cccc(C)c1OC[C@H]1CCCN1c1cc2c(cc1F)c(=O)c(C(=O)O)cn2-c1ccc(O)cc1
7. O=C(O)c1cn(-c2ccc(O)c(F)c2)c2cc(N3CCC[C@@H]3COc3ncccc3Cl)c(Cl)cc2c1=O

1: ≥ 6.00; 2: ≥ 6.00; 3: ≥ 6.00; 4: 5.00 to 6.00; 5: ≥ 6.00; 6: < 4.30; 7: ≥ 6.00

Consider the compound O=C(O)c1cn(-c2ccc(F)c(F)c2)c2cc(N3CCC[C@@H]3COc3ccccn3)c(F)cc2c1=O and give its measured pIC50.
5.00 to 6.00
